- Assayed target: Kappa-type opioid receptor (Homo sapiens)
- Sequence (P41145 whole entry): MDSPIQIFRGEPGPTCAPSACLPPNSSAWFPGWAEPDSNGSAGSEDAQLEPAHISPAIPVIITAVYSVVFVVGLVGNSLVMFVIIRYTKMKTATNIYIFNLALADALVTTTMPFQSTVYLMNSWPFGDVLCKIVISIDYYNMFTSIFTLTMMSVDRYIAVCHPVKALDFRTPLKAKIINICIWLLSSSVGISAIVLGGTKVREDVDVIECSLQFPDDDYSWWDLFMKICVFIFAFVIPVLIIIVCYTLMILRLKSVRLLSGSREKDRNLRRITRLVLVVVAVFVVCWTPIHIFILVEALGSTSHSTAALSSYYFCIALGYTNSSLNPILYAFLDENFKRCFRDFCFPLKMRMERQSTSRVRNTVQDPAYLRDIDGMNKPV
- Measurement notes: Binding affinity to kappa opioid receptor (unknown origin)
Starred links: 1 amine or outer side, 2 acyl side, 3 side chain; linkers in the order of their positions; H or OH if unused. Positions of bridges follow the written chain, without caps; N, C: chain ends. Non-standard residues stand in square brackets, D forms with d. Residues, ends and D or L forms follow the SMILES beside them. dPen = CC(C)(S)[C@@H](N)C(=O)O; CH2CH2 = C(C[*:2])[*:1]
Recorded endpoint: pKi
Numbers only, as −log10 of the molar value.

Briefly, pKi measured for CC1(C)SCCSC[C@@H](NC(=O)[C@@H](N)Cc2ccc(O)cc2)C(=O)N[C@@H](Cc2ccccc2)C(=O)N[C@H]1C(N)=O (H-Y[dC]F[dPen]-NH2; linker 2-4 via CH2CH2) : 5.70
